compounds and their reported herbicidal rating, ORYSAT (rice tolerance)
# Tested on: ORYSAT (Rice, Tebonnet)
# test-protocol: Flooded paddy, post-transplant rice tolerance
# Assay type: in vivo, Oryza sativa, (L.) Tebonnet
# setup-conditions: flooded paddy, post-transplant rice; rate 0.0320 kg/ha; rated 3-4 weeks after treatment; 0-9 rating scale
API note: the answer field is a bare number with no unit suffix.

Sample records with herbicidal rating, ORYSAT (rice tolerance):
>>> df
                                   compound  readout_number
0  CSCC1COC(c2nsc3ccc(-n4c(=O)cc(C(F)(F)F)n(C)c4=O)cc23)O1 (centres unmarked)             1.5
1  Cn1c(C(F)(F)F)cc(=O)n(-c2ccc3snc(-c4nccs4)c3c2)c1=O             2.7

Task: Tell me its herbicidal rating, ORYSAT (rice tolerance) given `Cc1csc(-c2nsc3ccc(-n4c(=O)cc(C(F)(F)F)n(C)c4=O)cc23)n1` as the entry.
Result: 2.0

Task: Tell me its herbicidal rating, ORYSAT (rice tolerance) given Cn1c(C(F)(F)F)cc(=O)n(-c2ccc3snc(C4SCCN4C(=O)c4ccccc4)c3c2)c1=O (centres unmarked) as the entry.
Result: 3.0

Task: Tell me its herbicidal rating, ORYSAT (rice tolerance) given `COC(=O)COc1ccsc1-c1nsc2ccc(-n3c(=O)cc(C(F)(F)F)n(C)c3=O)cc12` as the entry.
Result: 2.0

Task: Tell me its herbicidal rating, ORYSAT (rice tolerance) given Cn1c(C(F)(F)F)cc(=O)n(-c2ccc3snc(C4OCC(CCl)O4)c3c2)c1=O (centres unmarked) as the entry.
Result: 7.0

Task: Tell me its herbicidal rating, ORYSAT (rice tolerance) given `Cn1c(C(F)(F)F)cc(=O)n(-c2ccc3snc(-c4ccsc4)c3c2)c1=O` as the entry.
Result: 5.5

Task: Tell me its herbicidal rating, ORYSAT (rice tolerance) given CCCC1COC(c2nsc3ccc(-n4c(=O)cc(C(F)(F)F)n(C)c4=O)cc23)O1 (centres unmarked) as the entry.
Result: 3.0
